- Test system: PPARg:RXRa IVT, anti-PPARg (NR concentration 270 nM, RXRa partner concentration 90 nM)
- Assay: PBM binding z-score (relative to random genomic background probes); higher = stronger binding; sequences stand for … in GC…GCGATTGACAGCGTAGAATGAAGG
Quantity name: PBM binding z-score
One number for each entry.

Worked cases, PBM binding z-score given:
Residue string	Quantity name	Observed measurement
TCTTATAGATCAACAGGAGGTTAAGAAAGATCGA	PBM binding z-score	0.332
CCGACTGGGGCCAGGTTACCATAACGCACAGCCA	PBM binding z-score	-0.22
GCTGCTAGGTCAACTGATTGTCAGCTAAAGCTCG	PBM binding z-score	4.51

Please supply PBM binding z-score for each of the following items, keeping them in order.
1. ATCGAAAGGTCGAGGTCAGTATAGAGAAAGGGAA
2. AATACAGGGTCATGGTAGGCCAGAGTACGCACAG
3. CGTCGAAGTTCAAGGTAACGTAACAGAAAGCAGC
4. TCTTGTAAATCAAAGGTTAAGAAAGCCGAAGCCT

Out:
3.1
4.41
0.326
1.25

* * *

- Test system: LXRa:RXRa (NR concentration 270 nM, RXRa partner concentration 90 nM)
- Assay: PBM binding z-score (relative to random genomic background probes); higher = stronger binding; sequences stand for … in GC…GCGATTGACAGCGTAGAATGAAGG
Returns one of 1 (yes) or 0 (no); 1 (yes) when PBM binding z-score is >= 2.

Here are 3 sequences together with their reported answers.
Residue string	Target	Class label
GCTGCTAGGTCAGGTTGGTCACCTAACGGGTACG	LXRa:RXRa (NR concentration 270 nM, RXRa partner concentration 90 nM)	0 (no)
CGAACTAGGTCATCCAGGGCAGTGAATACATTGA	LXRa:RXRa (NR concentration 270 nM, RXRa partner concentration 90 nM)	1 (yes)
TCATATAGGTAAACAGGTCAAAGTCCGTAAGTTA	LXRa:RXRa (NR concentration 270 nM, RXRa partner concentration 90 nM)	1 (yes)

In: Decide: is the reported value of PBM binding z-score for "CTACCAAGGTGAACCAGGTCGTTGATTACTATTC" equal to or greater than 2?
Out: 0 (no)

In: Thanks! And "TCTGTTAGGTCAACGATGGTCAGCTAATCTGCTA" ?
Out: 1 (yes)

In: Thanks! And "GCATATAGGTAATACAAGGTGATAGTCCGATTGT" ?
Out: 0 (no)

* * *

- Tested on: LXRa homodimer (NR concentration 270 nM)
- Assay: PBM binding z-score (relative to random genomic background probes); higher = stronger binding; sequences stand for … in GC…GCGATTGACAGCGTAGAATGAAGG
Field: PBM binding z-score. Provide a value for each of the sequences that follow.
Give bare numbers.

Worked cases, PBM binding z-score given:
Residue string	Target	PBM binding z-score
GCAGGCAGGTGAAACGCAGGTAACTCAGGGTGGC	LXRa homodimer (NR concentration 270 nM)	-0.513
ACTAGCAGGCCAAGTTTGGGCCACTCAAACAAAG	LXRa homodimer (NR concentration 270 nM)	-0.865
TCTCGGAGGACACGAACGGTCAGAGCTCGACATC	LXRa homodimer (NR concentration 270 nM)	0.0467
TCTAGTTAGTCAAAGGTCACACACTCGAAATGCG	LXRa homodimer (NR concentration 270 nM)	4.78
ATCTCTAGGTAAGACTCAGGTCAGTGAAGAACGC	LXRa homodimer (NR concentration 270 nM)	0.909

# evaluate next
In: Give the measured PBM binding z-score of "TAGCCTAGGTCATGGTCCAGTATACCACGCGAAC" .
Out: 0.367
